Values compiled from patent US20100099677A1.

- study-target: CFTR (Homo sapiens)
- Construct: results in the phosphorylation and opening of CFTR anion channels
- Sequence (P13569 whole entry): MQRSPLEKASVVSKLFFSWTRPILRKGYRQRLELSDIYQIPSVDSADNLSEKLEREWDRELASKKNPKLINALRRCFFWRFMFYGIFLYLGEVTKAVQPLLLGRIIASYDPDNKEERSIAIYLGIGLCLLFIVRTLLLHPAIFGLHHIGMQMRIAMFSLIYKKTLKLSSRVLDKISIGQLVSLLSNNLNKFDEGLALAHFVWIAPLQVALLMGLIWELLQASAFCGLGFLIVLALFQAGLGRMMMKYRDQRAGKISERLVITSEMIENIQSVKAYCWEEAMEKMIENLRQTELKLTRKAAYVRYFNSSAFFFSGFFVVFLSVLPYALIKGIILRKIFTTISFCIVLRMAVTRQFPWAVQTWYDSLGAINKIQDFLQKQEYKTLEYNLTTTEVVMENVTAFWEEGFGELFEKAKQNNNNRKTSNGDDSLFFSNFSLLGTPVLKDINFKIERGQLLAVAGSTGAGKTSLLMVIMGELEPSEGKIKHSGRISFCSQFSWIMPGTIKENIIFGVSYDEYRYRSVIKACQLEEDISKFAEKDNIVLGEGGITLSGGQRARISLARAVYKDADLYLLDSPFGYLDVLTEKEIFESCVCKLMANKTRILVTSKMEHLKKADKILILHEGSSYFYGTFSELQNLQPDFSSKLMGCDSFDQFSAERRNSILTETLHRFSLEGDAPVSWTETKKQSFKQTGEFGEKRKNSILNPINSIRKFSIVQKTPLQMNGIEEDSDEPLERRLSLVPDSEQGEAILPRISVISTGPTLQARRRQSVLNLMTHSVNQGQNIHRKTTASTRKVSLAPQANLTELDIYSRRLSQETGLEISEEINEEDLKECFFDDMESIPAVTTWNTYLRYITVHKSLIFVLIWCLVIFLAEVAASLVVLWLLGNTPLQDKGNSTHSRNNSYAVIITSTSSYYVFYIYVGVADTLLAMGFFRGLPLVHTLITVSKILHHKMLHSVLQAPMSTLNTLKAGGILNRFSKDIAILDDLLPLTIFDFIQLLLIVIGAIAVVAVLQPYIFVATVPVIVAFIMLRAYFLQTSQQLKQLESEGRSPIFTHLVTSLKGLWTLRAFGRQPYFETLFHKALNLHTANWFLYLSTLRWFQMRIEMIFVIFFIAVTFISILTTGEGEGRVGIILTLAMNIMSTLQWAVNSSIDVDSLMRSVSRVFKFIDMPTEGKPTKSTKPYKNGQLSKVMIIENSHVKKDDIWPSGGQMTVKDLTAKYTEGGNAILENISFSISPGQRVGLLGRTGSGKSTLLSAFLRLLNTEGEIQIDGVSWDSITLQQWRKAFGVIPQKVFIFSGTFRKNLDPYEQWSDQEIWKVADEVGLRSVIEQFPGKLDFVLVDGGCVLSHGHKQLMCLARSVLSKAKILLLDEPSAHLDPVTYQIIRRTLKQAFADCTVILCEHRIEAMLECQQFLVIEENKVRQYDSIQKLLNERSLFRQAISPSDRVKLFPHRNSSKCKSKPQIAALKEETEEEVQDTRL
- experimental-protocol: T84 assay (FLIPR membrane potential dye, forskolin/IBMX-stimulated CFTR channel activity)
- condition-context: human colonic T84 cells, average of at least 2 runs unless otherwise indicated
test-readout: IC50 (µM)

>  <compound>
O=C(c1nc(-c2cc(Cl)c(O)c(Cl)c2)cs1)N1CCC(Cc2ccccc2)CC1 [Compound 70]

>  <study-target>
CFTR (Homo sapiens)

>  <val>
8.95

$$$$
>  <compound>
O=C(c1nc(-c2cc(Br)c(O)c(Br)c2)cs1)N1CCC(Cc2ccccc2)CC1 [Compound 72]

>  <study-target>
CFTR (Homo sapiens)

>  <val>
11.1

$$$$
>  <compound>
O=C(c1nc(-c2cc(Br)c(O)c(Br)c2)cs1)N1CCN(c2cccc(C(F)(F)F)c2)CC1 [Compound 73]

>  <study-target>
CFTR (Homo sapiens)

>  <val>
12.3

$$$$
>  <compound>
O=C(O)CCCOc1c(-c2csc(C(=O)N3CCC(Cc4ccccc4)CC3)n2)cc(Br)c(O)c1Br [Compound 89]

>  <study-target>
CFTR (Homo sapiens)

>  <val>
8.79

$$$$
